Recorded values, source ChEMBL document CHEMBL1146951.

tested.on: Cyclin-dependent kinase 1/cyclin B1 (Homo sapiens, UniProt P06493)
Sequence (P06493 whole entry): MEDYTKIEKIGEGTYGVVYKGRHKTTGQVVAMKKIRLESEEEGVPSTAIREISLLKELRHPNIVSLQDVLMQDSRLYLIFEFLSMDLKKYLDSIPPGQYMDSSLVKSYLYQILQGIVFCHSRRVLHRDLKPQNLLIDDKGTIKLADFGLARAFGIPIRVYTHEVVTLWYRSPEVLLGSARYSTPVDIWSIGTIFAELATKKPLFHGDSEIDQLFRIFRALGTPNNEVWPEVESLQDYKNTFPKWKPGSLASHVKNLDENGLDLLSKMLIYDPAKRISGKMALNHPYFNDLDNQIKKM
Sequence (P14635 whole entry, further chain): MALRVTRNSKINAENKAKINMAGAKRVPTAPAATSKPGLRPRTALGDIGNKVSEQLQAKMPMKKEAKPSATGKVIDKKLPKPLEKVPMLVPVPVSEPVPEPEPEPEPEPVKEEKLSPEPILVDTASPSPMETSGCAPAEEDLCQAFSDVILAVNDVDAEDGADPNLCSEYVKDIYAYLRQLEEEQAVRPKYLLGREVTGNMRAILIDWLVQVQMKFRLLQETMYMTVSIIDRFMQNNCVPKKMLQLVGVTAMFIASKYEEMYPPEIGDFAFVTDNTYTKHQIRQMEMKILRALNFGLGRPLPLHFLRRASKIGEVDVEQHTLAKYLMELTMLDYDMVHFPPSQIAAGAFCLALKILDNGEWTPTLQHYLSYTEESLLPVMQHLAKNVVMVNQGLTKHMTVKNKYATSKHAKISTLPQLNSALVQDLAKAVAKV
experiment.summary: Inhibition of CDK1/CyclinB1
measurement.type: IC50

Report IC50 for `Cn1cc(/C=C2\C(=O)NN=C2c2nccs2)c2cc3c(cc21)OCO3` tested on Cyclin-dependent kinase 1/cyclin B1 (Homo sapiens, UniProt P06493). > 100 µM
